Reported values of MIC (μg/ml) at 24 hours, VRE 1 for individual entries
Tested on: VRE
PROCEDURE_DETAILS: Broth microdilution MIC, Example 7 (NCL812 and analogues)
Assay type: cell-based, Enterococcus spp.
MEASUREMENT_SETUP: VRE 1; 24 hours; duplicate lines per compound
Write the number in µg/mL without appending the unit.

# MOLECULE, TGT, MIC (μg/ml) at 24 hours, VRE 1 [µg/mL]
data = [
    ("Cl.N=C(NN=Cc1ccc(-c2ccccc2)cc1)NN=Cc1ccc(-c2ccccc2)cc1 [NCL112]", "VRE", 64),
]

Identify the reported MIC (μg/ml) at 24 hours, VRE 1 for the following entry. Cl.N=C(NN=Cc1cccc(Br)c1)NN=Cc1cccc(Br)c1 [NCL 131]
4

Identify the reported MIC (μg/ml) at 24 hours, VRE 1 for the following entry. N=C(NN=Cc1ccc(Cl)cc1N)NN=Cc1ccc(Cl)cc1N [NCL 169]
32
